Please provide measured MDCK-MDR1: % Recov A-B (%) for the entries that follow.
- System: MDR1-MDCK cell monolayers
- test.settings: dog, MDCK-MDR1, 120 min, 5 μM, pH 7.4
Numbers only here, please. The scale is %.

Req: Fill in MDCK-MDR1: % Recov A-B (%) for record CN(c1cnc(-c2cc3ncn(CC(F)(F)F)c(=O)c3cc2O)cn1)[C@@H]1CC2CCC[C@H](N2)[C@@H]1F (single isomer, unassigned)
Resp: 78

Req: Fill in MDCK-MDR1: % Recov A-B (%) for record CN(c1cnc(-c2cc(F)c(-c3cnn(C)c3)cc2O)cn1)[C@H]1C[C@@H]2CCC(N2)[C@H]1F (single isomer, unassigned) [Compound 17E1]
Resp: 31

Req: Fill in MDCK-MDR1: % Recov A-B (%) for record CNC(=O)/C=C/c1cc(O)c(-c2cnc(N(C3CC3)[C@H]3C[C@]4(C)CC[C@@](C)(N4)[C@H]3F)cn2)cc1F (single isomer, unassigned)
Resp: 91

====

- Test system: MDR1 (P-gp)
- assay.method.text: MDCK-MDR1 permeability assay, blood-brain-barrier penetration potential
- test.settings: dog, MDCK-MDR1, pH 7.4, MDCK-MDR1 Efflux Ratio
Please provide measured efflux ratio at 120 min, 5 μM for the entries that follow.
I only need the number, thanks.

Req: Fill in efflux ratio at 120 min, 5 μM for record CN(c1cnc(-c2cc3oc(C(=O)N4CCC4)cc3cc2O)cn1)[C@H]1C[C@@H]2CCC(N2)[C@H]1F (single isomer, unassigned) [Compound 20E2]
Resp: 45

Req: Fill in efflux ratio at 120 min, 5 μM for record CN(c1cnc(-c2ccc(C3=CCOC3)cc2O)cn1)[C@@H]1CC2CC[C@H](N2)[C@@H]1F (single isomer, unassigned) [Compound 84E1]
Resp: 3

Req: Fill in efflux ratio at 120 min, 5 μM for record CN(c1cnc(-c2ccc(-c3cn[nH]c3)cc2O)cn1)[C@H]1C[C@]2(C)CCC(N2)[C@H]1F (single isomer, unassigned) [Compound 28E1]
Resp: 15

Req: Fill in efflux ratio at 120 min, 5 μM for record COc1cc(-c2ccc(-c3cnc(N(C)[C@H]4C[C@@H]5COCC(N5)[C@H]4F)cn3)c(O)c2)ccn1 (single isomer, unassigned) [Compound 81E2]
Resp: 2

Req: Fill in efflux ratio at 120 min, 5 μM for record CN(c1cnc(-c2cc(F)c(-c3cn[nH]c3)cc2O)cn1)[C@@H]1C[C@@]2(C)CC[C@](C)(N2)[C@@H]1F [Compound 57E1]
Resp: 3

Req: Fill in efflux ratio at 120 min, 5 μM for record COc1cc(-c2ccc(-c3cnc(N(C)[C@H]4C[C@@H]5CCC(N5)[C@H]4F)cn3)c(O)c2)cc(F)n1 (single isomer, unassigned) [Compound 44E2]
Resp: 3

Req: Fill in efflux ratio at 120 min, 5 μM for record CN(c1cnc(-c2cc(F)c(-c3cn[nH]c3)cc2O)cn1)[C@H]1C[C@]2(C)CC[C@@](C)(N2)[C@H]1F [Compound 57E2]
Resp: 3

Req: Fill in efflux ratio at 120 min, 5 μM for record CN(c1cnc(-c2cc(F)c(-c3ccn(C)c(=O)c3)cc2O)cn1)[C@H]1C[C@@H]2CCC(N2)[C@H]1F (single isomer, unassigned) [Compound 13E2]
Resp: 21

Req: Fill in efflux ratio at 120 min, 5 μM for record O=c1cc(-c2ccc(-c3cnc(N(C4CC4)[C@H]4C[C@@H]5CCC(N5)[C@H]4F)cn3)c(O)c2)ccn1CF (single isomer, unassigned) [Compound 54E2]
Resp: 24

Req: Fill in efflux ratio at 120 min, 5 μM for record CN(c1cnc(-c2ccc(-c3cn[nH]c3)cc2O)cn1)[C@@H]1C[C@H]2CCC(N2)[C@@H]1F (single isomer, unassigned) [Compound 8E1]
Resp: 9

Req: Fill in efflux ratio at 120 min, 5 μM for record CN(c1cnc(-c2ccc(-c3cnn(C)c3)cc2O)cn1)[C@@H]1CC2N[C@H](C1)CC2(F)F (single isomer, unassigned) [Compound 10E2]
Resp: 1

Req: Fill in efflux ratio at 120 min, 5 μM for record CN(c1cnc(-c2cc(F)c(-c3cnn(C)c3)cc2O)cn1)[C@H]1C[C@@H]2CCC(N2)[C@H]1F (single isomer, unassigned) [Compound 17E1]
Resp: 4
